# Target of assay: PNKP (Homo sapiens (Human), UniProt Q96T60)
# Experiment: Binding affinity (Kd) by steady-state fluorescence spectroscopy, protein tryptophan fluorescence quenching
# Protocol: We chose to first rate and compare the analogues using a single-point measurement at 20 μM concentration. […] Only the top-rated analogues were further evaluated with an IC50 and a dissociation constant (Kd) determination. Freschauf, G. K., Mani, R. S., Mereniuk, T. R., Fanta, M., Virgen, C. A., Dianov, G. L., Grassot, J. M., Hall, D. G., and Weinfeld, M. Mechanism of action of an imido-piperidine inhibitor of human polynucleotide kinase/phosphatase.
pKd: −log10 of the molar value.

Compound	pKd
CCCCCCCCCC[C@@H](O)[C@H]1C=CC2C(=O)N(c3ccccc3)C(=O)[C@H]2N1Nc1ccc([N+](=O)[O-])cc1 (stereo in doubt) [Compound A12B4C3]	6.43
